Tested on: 786-0 renal
Assay notes: NCI tumour cell line growth inhibition, 48 h
Quantity kind: TGI

INSERT INTO results (compound, quantity_kind, observed_value) VALUES
  ('O=C(O)c1nccnc1C(=O)O', 'TGI', '> 100 µM');

Request: Could you tell me which TGI is on file for CC(=O)ON(C(C)=O)C1C(COC(c2ccccc2)(c2ccccc2)c2ccccc2)OC2OC3(CCCC3)OC21 (centres undefined) ?
Result: > 75.2 µM

Request: Could you tell me which TGI is on file for `Nc1ccc2c(c1)Oc1c(F)c(F)cc3c(=O)c(C(=O)O)cn-2c13` ?
Result: > 100 µM

Request: Could you tell me which TGI is on file for `Oc1ccc(-c2cn3cc(C(F)(F)F)ccc3n2)cc1` ?
Result: > 100 µM

Request: Could you tell me which TGI is on file for COc1ccc(/C=c2/sc3n(c2=O)NC(c2ccc(Cl)cc2)NN=3)cc1 (centres undefined) ?
Result: > 100 µM

Request: Could you tell me which TGI is on file for `O=C(NNC(=S)NCc1ccccc1)C12CC3CC(CC(C3)C1)C2` ?
Result: > 100 µM

Request: Could you tell me which TGI is on file for `Cc1nnc(-c2ccc(C)c(-c3ccc(C(=O)NCc4ccc(Cl)cc4)cc3)c2)o1` ?
Result: > 25 µM

Request: Could you tell me which TGI is on file for COCOCC[C@@H]1CC=CC(NC(=O)OCc2ccccc2)C1/C=C/C(=O)CCC1OCCO1 (some centres undefined) ?
Result: > 100 µM

Request: Could you tell me which TGI is on file for `NC(N)=NS(=O)(=O)c1ccc(NC(=O)c2ccc3[nH]c4ccccc4c(=O)c3c2)cc1` ?
Result: > 100 µM

----------
Test system: 786-0 renal
Assay notes: NCI tumour cell line growth inhibition, 48 h
Quantity kind: TGI

Request: TGI of CN(C)c1ccc(C2ON=C(c3ccccc3)N2C23CC4CC(CC(C4)C2)C3)cc1 (configuration not stated) on 786-0 renal?
Result: > 10 µM

Request: TGI of NNC(=O)N/N=C1\C(=O)N(c2nccs2)C(=O)C(=O)C1c1nc2ccccc2s1 (configuration not stated) on 786-0 renal?
Result: > 100 µM

Request: TGI of `Cc1ccc(-c2cc(-c3c(C)nn(C)c(=O)c3N)[nH]n2)cc1` on 786-0 renal?
Result: > 100 µM

----------
Test system: OVCAR-3 ovarian
Assay notes: NCI tumour cell line growth inhibition, 48 h
Quantity kind: TGI

Recorded TGI, per entry:
INSERT INTO measurements (molecule, observed_value) VALUES
  ('Cc1ccc(/C=C(\C#N)c2ccccc2)cc1', '> 100 µM'),
  ('COc1cc(-c2ccc(NC(=O)NC3CC3)c(OC)c2)ccc1NC(=O)NC1CC1', '> 100 µM'),
  ('CCCCCCCCCCCCCC(=O)OCC1OC(n2cc(F)c(=O)[nH]c2=O)C(N)C(OC(=O)CCCCCCCCCCCCC)C1O (configuration not stated)', '> 100 µM');

Request: Could you tell me which TGI is on file for `COc1cc2c(cc1OC)c1c(OC)c(OC)cc3c1c1c2sc(=S)n1CC3` ?
Result: > 100 µM

Request: Could you tell me which TGI is on file for `[O-][n+]1c(-c2ccccc2)c2nc3ccccc3nc2c2ccccc21` ?
Result: > 100 µM

Request: Could you tell me which TGI is on file for `C[N+](C)([O-])Cc1cc(-c2ccccc2)ccc1O` ?
Result: > 100 µM

Request: Could you tell me which TGI is on file for `O=[N+]([O-])c1sc2ccc(Cl)cc2c1Nc1ccc(Cl)cc1` ?
Result: > 100 µM

Request: Could you tell me which TGI is on file for `CCC(=O)NCCc1c2c3c(ccnc3c3ncsc13)-c1ccccc1N2` ?
Result: > 66.5 µM

Request: Could you tell me which TGI is on file for `COc1ccc(/C=C2/CCS(=O)(=O)c3ccc(C)cc3C2=O)cc1OC` ?
Result: > 100 µM

Request: Could you tell me which TGI is on file for `Oc1cc(CN2COc3ccccc32)c(O)cc1CNC1CCCCC1` ?
Result: > 100 µM

Request: Could you tell me which TGI is on file for `CC1=NN(C(=O)c2ccc(Cl)cc2)C(=O)/C1=C/c1ccco1` ?
Result: > 100 µM

Request: Could you tell me which TGI is on file for `CC(=O)O[C@@H]1O[Si](C(C)(C)C)(C(C)(C)C)[C@H](C)[C@H]1C` ?
Result: > 100 µM

----------
The following molecules are listed with their measured TGI values.
Test system: EKVX NSCLC
Assay notes: NCI tumour cell line growth inhibition, 48 h
Answer in µM, number only, no unit symbol.

Recorded TGI, per entry:
INSERT INTO measurements (molecule, observed_value) VALUES
  ('CN(C)CCC1(C2=CCCC2)CC/C(=C\c2ccccc2Cl)C1=O (centres undefined)', 29.3),
  ('CC(=O)Oc1c(C)c2c(c3ccccc13)OC(C)(C)C2', 34),
  ('C=CCc1cccc(/C=N\N=C(/N)NO)c1O', 17.7),
  ('CN1CCN(Cc2ccc(NC(=O)c3cncc(C#Cc4cnn5ccccc45)c3)cc2C(F)(F)F)CC1', 2),
  ('O=[N+]([O-])c1cccc2nc3ccccc3c(NCCCN3CCCCC3)c12', 0.0401);

Next up:
Request: Could you tell me which TGI is on file for `CCN(CC)CCNc1ccc2nnn3c4ccccc4c(=O)c1c23` ?
Result: 19.4

----------
System: MALME-3M melanoma
Assay notes: NCI tumour cell line growth inhibition, 48 h
Quantity kind: TGI

INSERT INTO measurements (compound_smiles, observed_value) VALUES
  ('O=C1CN(c2ccc(Cl)cc2)C(=O)CN1NCNN1CC(=O)N(c2ccc(Cl)cc2)CC1=O', '> 100 µM'),
  ('C[C@@H]1CC[C@@H]2[C@@H](C)C[C@H]3[C@@H]4C(C)(C)OC(=O)[C@]4(C)C(=O)[C@@]23C1=O', '> 100 µM'),
  ('c1ccc(C2=Nc3cccc4cccc(c34)N2)cc1', '> 77.6 µM'),
  ('Nc1ccc2c(c1)Oc1c(F)c(F)cc3c(=O)c(C(=O)O)cn-2c13', '> 100 µM');

Next up:
Request: Could you tell me which TGI is on file for `Cc1cc(C)nc(NS(=O)(=O)c2ccc(NC(=O)c3ccc(Cl)c4c(Nc5ccc(S(=O)(=O)N=C(N)N)cc5)c5ccccc5nc34)cc2)n1` ?
Result: > 100 µM

----------
Tested on: SNB-19 CNS
Assay notes: NCI tumour cell line growth inhibition, 48 h
The following molecules are listed with their measured TGI values.

Recorded TGI, per entry:
INSERT INTO results (molecule, observed_value) VALUES
  ('CCCCN=C1OCc2[nH][nH]c(=O)c21', '> 100 µM'),
  ('C#CCN(N=O)C(=O)NCCCC(NC(C)=O)C(=O)NCc1ccccc1 (stereo not drawn)', '> 100 µM'),
  ('COc1ccc(C[C@H](N)C(=O)N2C[C@@H](CO)C[C@@H](n3cnc4c(N(C)C)ncnc43)C2)cc1', '> 100 µM'),
  ('CCN(CC)CCNc1ccc2nnn3c4ccccc4c(=O)c1c23', '40.3 µM');

Request: TGI of `CCCN1C(=O)/C(=C/c2ccc(O)cc2)SC1=Nc1ccc(OC)cc1` on SNB-19 CNS?
Result: 45.5 µM

Request: TGI of `N#Cc1cc(NC(=O)c2ccccc2)c(=O)n2c1[nH]c1ccccc12` on SNB-19 CNS?
Result: 74.7 µM

Request: TGI of `COC(=O)c1ccc2c(c1)c1c(C)c3ccncc3c(C)c1n2C` on SNB-19 CNS?
Result: > 100 µM

Request: TGI of `C=CCn1cnc2c(=O)[nH]c(Nc3ccccc3)nc21` on SNB-19 CNS?
Result: > 100 µM

----------
Tested on: A498 renal
Assay notes: NCI tumour cell line growth inhibition, 48 h
The following compounds are listed with their measured TGI values.
Answer in µM, number only, no unit symbol.

Request: Could you tell me which TGI is on file for `CCN(CC)CCNc1ccc2nnn3c4ccccc4c(=O)c1c23` ?
Result: 24.2

Request: Could you tell me which TGI is on file for `COc1ccc2c(-c3ccc(O)cc3)c(Oc3ccc(Cl)cc3)c(=O)oc2c1` ?
Result: 22.5

----------
The following compounds are listed with their measured TGI values.
System: M14 melanoma
Assay notes: NCI tumour cell line growth inhibition, 48 h

Request: Could you tell me which TGI is on file for COC(=O)C(=O)C(C(=O)C=C(C)C)C(=O)C(=O)Nc1nc2ccc([N+](=O)[O-])cc2s1 (stereo not given) ?
Result: > 100 µM

Request: Could you tell me which TGI is on file for `Cc1nc(Nc2ccccc2)sc1C(=O)CC(=O)C(=O)NC12CC3CC(CC(C3)C1)C2` ?
Result: > 100 µM

Request: Could you tell me which TGI is on file for `COC(=O)c1cc(C)n(CN(Cc2ccccc2)Cn2nc(C(=O)OC)cc2C)n1` ?
Result: > 100 µM

Request: Could you tell me which TGI is on file for CC(=O)C1CCC2C3CC=C4CC(SC(=N)N)CCC4(C)C3CCC12C (stereo not given) ?
Result: 2.81 µM
